System: HEK-293T
Assay: Incucyte cell viability with HEK293T; also: filed as whole numbers so only -1 and 0 and 1 occur
Assay type: toxicity, cell-based
Conditions: human, 6 h, 10 µM, compound concentration 10 uM, replicate number 1, timepoint 6 hours
outcomeMeasure: Growth Rate

compound: CN1CCC(=C2c3ccccc3CC(=O)c3sccc32)CC1.O=C(O)/C=C/C(=O)O [KETOTIFEN FUMARATE]
outcomeMeasure: Growth Rate
endpointValue: 0
//
compound: CN(C)C(=O)C(CCN1CCC(O)(c2ccc(Cl)cc2)CC1)(c1ccccc1)c1ccccc1.Cl [LOPERAMIDE HYDROCHLORIDE]
outcomeMeasure: Growth Rate
endpointValue: 0
//
compound: Cc1nc(NC(=O)N2CCC[C@H]2C(N)=O)sc1-c1ccnc(C(C)(C)C(F)(F)F)c1
outcomeMeasure: Growth Rate
endpointValue: 0
//
compound: CCCn1c(=O)c2[nH]c(-c3cnn(Cc4cccc(C(F)(F)F)c4)c3)nc2n(CC)c1=O
outcomeMeasure: Growth Rate
endpointValue: 0
//
compound: COc1cc2c(CCNC(C)=O)c[nH]c2cc1Cl
outcomeMeasure: Growth Rate
endpointValue: 1
//
compound: CCN1CCN(Cc2ccc(Nc3ncc(F)c(-c4cc(F)c5nc(C)n(C(C)C)c5c4)n3)nc2)CC1.CS(=O)(=O)O
outcomeMeasure: Growth Rate
endpointValue: 0
//
compound: COc1cc(N2CCC(N3CCN(C)CC3)CC2)ccc1Nc1ncnc(Nc2ccccc2S(=O)(=O)C(C)C)n1
outcomeMeasure: Growth Rate
endpointValue: 0
//
compound: CCOc1cc(C(=O)N2CCC(N3CCN(C)CC3)CC2)ccc1Nc1ncc2c(n1)N(C1CCCC1)c1ccccc1C(=O)N2C
outcomeMeasure: Growth Rate
endpointValue: 0
//
compound: CC(C)(C)OC(=O)N1CCCC1CNC1CCC(c2cc(F)ccc2F)(S(=O)(=O)c2ccc(Cl)cc2)CC1 (configuration not stated)
outcomeMeasure: Growth Rate
endpointValue: 0
//
compound: NS(=O)(=O)c1c(Cl)ccc(NC(=O)Nc2cccc(Cl)c2Cl)c1O
outcomeMeasure: Growth Rate
endpointValue: 1
//
compound: Cc1nc(-c2ccc(C(F)(F)F)cc2)sc1COc1ccc([C@H](CC(=O)O)c2ccon2)cc1
outcomeMeasure: Growth Rate
endpointValue: 0
//
compound: COc1cc2ncnc(Nc3ccc(F)c(Cl)c3)c2cc1NC(=O)/C=C/CN1CCCCC1 [DACOMITINIB ANHYDROUS]
outcomeMeasure: Growth Rate
endpointValue: 0
//
compound: FC(F)(F)c1cccc(-c2noc(-c3cc(-c4ccccc4)c(C(F)(F)F)s3)n2)c1
outcomeMeasure: Growth Rate
endpointValue: 0
//
compound: CN1C2CCC1CC(OC(c1ccc(F)cc1)c1ccc(F)cc1)C2.Cl (configuration not stated)
outcomeMeasure: Growth Rate
endpointValue: 0
//
compound: CCCCCCCCCCCCCCCCOC[C@H](COP(=O)([O-])OCC[N+](C)(C)C)OC(C)=O
outcomeMeasure: Growth Rate
endpointValue: 1
//
compound: O=S(=O)(NC1CCC(c2cc(F)ccc2F)(S(=O)(=O)c2ccc(Cl)cc2)CC1)C(F)(F)F (configuration not stated)
outcomeMeasure: Growth Rate
endpointValue: 1
//
compound: CC(C)c1onc(-c2c(Cl)cccc2Cl)c1COc1ccc(/C=C/c2cccc(C(=O)O)c2)c(Cl)c1
outcomeMeasure: Growth Rate
endpointValue: 1
